Target or system Fibroblast growth factor receptor 3 (Homo sapiens, UniProt P22607); metric pIC50; compiled from varied reports.
pIC50: −log10 of the molar value.

Guide cases for pIC50, answers given:
{"compound": "CC(C)[C@@H]1O[C@H](c2ccncc2NC(=O)c2nc(-c3ccccc3)cnc2N)C[C@H](N)[C@H]1O", "measured.parameter": "pIC50", "assay.value": "< 5.00"}
{"compound": "NC(=O)c1c(-c2c(Cl)cccc2Cl)nc2c3cc(-c4cnn(C5CCOCC5)c4)cnc3ccn12", "measured.parameter": "pIC50", "assay.value": "9.00 to 10.00"}
{"compound": "C=CC(=O)NCc1cc2c(cn1)CN(c1c(Cl)c(OC)cc(OC)c1Cl)C(=O)N2CC", "measured.parameter": "pIC50", "assay.value": "< 6.70"}

Incoming: Quick one: give measured pIC50 for `O=C(NCC(F)(F)F)Nc1cccc(-n2cnc3cc(-c4cnn(C5CCN(CC6CC6)CC5)c4)ccc32)c1`
Outgoing: > 8.00

Incoming: Quick one: give measured pIC50 for `CNC(=O)c1cc(-c2cnc3cc(-c4ccc(C)c(C#N)c4)c(O[C@H]4CCOC4)nn23)c(F)c(C(F)F)c1`
Outgoing: 7.00 to 8.00

Incoming: Quick one: give measured pIC50 for `CS(=O)(=O)CCn1cc(-c2cnc3ccn4c(C(N)=O)c(-c5c(Cl)cccc5Cl)nc4c3c2)cn1`
Outgoing: > 10.00

Incoming: Quick one: give measured pIC50 for CC(C(=O)N1CCOCC1)n1cc(-c2cnn3c(-c4cccc(NC(=O)NCC(F)(F)F)c4)cnc3c2)cn1 (stereo not drawn)
Outgoing: > 8.00

Incoming: Quick one: give measured pIC50 for `COc1cc(OC)c(F)c(N2Cc3cnc(NC4CC(F)(F)C4)cc3C3(CC3)C2=O)c1F`
Outgoing: > 7.00

Incoming: Quick one: give measured pIC50 for `COc1cc(OC)c(F)c(N2Cc3cnc(N)cc3C3(CC3)C2=O)c1F`
Outgoing: > 7.00
